- Test system: NIK;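 further: KINOMEscan kinase panel screen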
- Construct: gene MAP3K14
- assay.context: concentration: 1 μM,replicates: in singlicate; n = 1
Kindly apply the following: YES if %Inh is less than 7%, NO in every other case.

Here's what some known entries look like.
INSERT INTO measurements (molecule, tested_target, group) VALUES
  ('CC(C(=O)NC1CCN(c2ccnc(Nc3ccc(F)cc3)n2)C1)c1ccc(Cl)cc1 (stereo not drawn)', 'NIK', 'NO'),
  ('COc1ccc(Nc2nccc(N3CCC(NC(=O)c4cccc(C#N)c4)C3)n2)cc1 (stereo not drawn)', 'NIK', 'YES'),
  ('Cc1cccc2c(-c3ccncc3)c(-c3ccc(F)cc3)nn12.Cl', 'NIK', 'NO'),
  ('COc1cccc(OC)c1C(=O)Nc1cccc(-c2nn3ccccc3c2-c2ccnc(Nc3cccc(F)c3)n2)c1', 'NIK', 'YES'),
  ('O=C(Nc1cccc(Oc2ccc3nccn3n2)c1)Nc1cccc(C(F)(F)F)c1', 'NIK', 'NO');

Q: For "Cl.Nc1n[nH]c2cc(-c3ccccn3)ccc12" , is the recorded %Inh below the cut-off of 7%?
Ans: YES

Q: Is %Inh of CS(=O)c1ccc(-c2coc3ccc(-c4n[nH]c(=O)o4)cc23)cc1 (stereo not drawn) strictly below 7%?
Ans: YES

Q: Criterion: %Inh strictly below 7%. Is it met by "CCn1c(-c2nonc2N)nc2cncc(Br)c21" ?
Ans: NO
